- TARGET UNDER TEST: UniProt:P35372
- EXPERIMENT SUMMARY: μ-opioid receptor [35S]GTPγS functional assay, HEK-293 or CHO cells (Table 4)
- Assay type: biochemical
- SETUP CONDITIONS: relative to DAMGO
- Experimental: μ-Opioid Receptor Functional Assay Procedures: [^35S]GTPγS functional assays were conducted using freshly thawed μ-receptor membranes prepared in-house from a cell line expressing recombinant μ opioid receptor in a HEK-293, CHO or U-2 OS cell background, or purchased from a commercial source (Perkin Elmer, Shelton, Conn.; or DiscovRx, Fremont, Calif.). […] Data were analyzed using the sigmoidal dose-response curve fitting functions in GraphPad PRISM v. […]
QUANTITY MEASURED: Emax (%)
Please respond with the number in % and leave the unit unwritten.

Below, each entry is followed by its recorded Emax result.
{"columns": ["COMPOUND", "OUTPUT UNIT", "Emax"],
 "data": [
  ["O=C(NCCCN1CCOCC1)[C@H]1C[C@]23CCN(CC4CC4)[C@H](Cc4ccc(O)cc42)[C@]3(O)C1 [Compound 91]", "%", -1],
  ["O=C(NCCN1CCOCC1)[C@@H]1C[C@]23CCN(CC4CC4)[C@H](Cc4ccc(O)cc42)[C@]3(O)C1 [Compound 84]", "%", 19.7],
  ["O=C(NCc1ccc(Cl)cc1Cl)[C@H]1C[C@]23CCN(CC4CC4)[C@H](Cc4ccc(O)cc42)[C@]3(O)C1 [Compound 45]", "%", 43.3]
]}

Query string: Item under review: O=C(Nc1ccccc1)N[C@@H]1CC23CCN(CC4CC4)[C@H](Cc4ccc(O)cc42)[C@]3(O)C1 (stereo in doubt) [Compound 83] . Reported Emax?
Result string: 0

Query string: Let us now turn to O=C(N[C@H]1CC23CCN(CC4CC4)[C@H](Cc4ccc(O)cc42)[C@]3(O)C1)c1ccccc1 (stereo in doubt) [Compound 79]
Result string: -1

Query string: What do we get for Cc1ccc(CNC(=O)[C@@H]2C[C@]34CCN(CC5CC5)[C@H](Cc5ccc(O)cc53)[C@]4(O)C2)cc1 [Compound 37] ?
Result string: 1

Query string: Can you handle CC(C)CNC(=O)[C@H]1C[C@]23CCN(CC4CC4)[C@H](Cc4ccc(O)cc42)[C@]3(O)C1 [Compound 36] next?
Result string: 1
